# Organism: Rattus norvegicus
# ASSAY SUMMARY: Open TG-GATES - Regimen: Single
# Type: toxicity, organism-based, Sprague-Dawley
# Set-up: regimen Single, gender Male, age 6 weeks
# CONDITION: in vivo, po, 300 mg/kg, 24 h, tissue Plasma, route gavage, dose level Middle
METRIC NAME: PL (mg/dL)
# output: bare number, implied unit mg/dL

Would you please look over these solved cases?
O=C(O)c1cn(C2CC2)c2cc(N3CCNCC3)c(F)cc2c1=O [CIPROFLOXACIN] ... 153.2
O=C(O)c1cc(/N=N/c2ccc(S(=O)(=O)Nc3ccccn3)cc2)ccc1O [SULFASALAZINE] ... 163.6
Clc1ccccc1CN1CCc2sccc2C1 [TICLOPIDINE] ... 146.6
C[C@H](CS)C(=O)N1CCC[C@H]1C(=O)O [CAPTOPRIL] ... 150.6

We next turn to a different molecule, shown below.
Challenge: Query: PL; subject: CCc1cc(C(N)=S)ccn1 [ETHIONAMIDE]
Response given: 105.2

These data points were gathered from ChEMBL document CHEMBL3885861.
